Entry source: patent US12042503B2

- target: EP4 receptor (PTGER4) (Homo sapiens, UniProt P35408)
- Construct: expressed in transfected cells; host or cells: PathHunter β-Arrestin PTGER4 (EP4) cell line
- Sequence (P35408 whole entry): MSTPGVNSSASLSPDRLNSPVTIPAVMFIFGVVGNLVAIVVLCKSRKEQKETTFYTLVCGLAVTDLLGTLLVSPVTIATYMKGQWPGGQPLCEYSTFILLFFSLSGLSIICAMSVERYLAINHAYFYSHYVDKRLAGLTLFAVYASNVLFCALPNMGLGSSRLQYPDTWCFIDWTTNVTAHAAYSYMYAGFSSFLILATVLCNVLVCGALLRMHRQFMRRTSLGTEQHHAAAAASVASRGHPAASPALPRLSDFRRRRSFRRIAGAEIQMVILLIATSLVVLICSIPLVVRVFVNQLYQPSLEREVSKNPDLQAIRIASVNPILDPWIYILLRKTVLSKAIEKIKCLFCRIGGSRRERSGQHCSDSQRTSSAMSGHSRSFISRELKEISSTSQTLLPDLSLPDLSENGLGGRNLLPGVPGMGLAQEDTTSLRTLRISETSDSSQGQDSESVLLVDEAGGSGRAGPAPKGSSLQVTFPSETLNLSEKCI
- procedure.summary: PathHunter β-Arrestin PTGER4 (EP4) agonist assay, optimisation of cell density and temperature
- Format: cell-based
- condition.description: N = 1, 7.5K 37C; read-out: RC50 (μM) / EC50, agonist
readout: EC50 (µM)
Your answer is read as µM, so omit the unit and give the number.

q: Would you kindly share the measured EC50 for CC#CCC(C)C(O)C=CC1C(O)CC2Oc3c(CCCC(=O)O)cccc3C21 (single isomer, unassigned) ?
a: 22

----------
- target: IP receptor (PTGIR) (Homo sapiens, UniProt P43119)
- Construct: host or cells: PathHunter beta-arrestin cell line
- Sequence (P43119 whole entry): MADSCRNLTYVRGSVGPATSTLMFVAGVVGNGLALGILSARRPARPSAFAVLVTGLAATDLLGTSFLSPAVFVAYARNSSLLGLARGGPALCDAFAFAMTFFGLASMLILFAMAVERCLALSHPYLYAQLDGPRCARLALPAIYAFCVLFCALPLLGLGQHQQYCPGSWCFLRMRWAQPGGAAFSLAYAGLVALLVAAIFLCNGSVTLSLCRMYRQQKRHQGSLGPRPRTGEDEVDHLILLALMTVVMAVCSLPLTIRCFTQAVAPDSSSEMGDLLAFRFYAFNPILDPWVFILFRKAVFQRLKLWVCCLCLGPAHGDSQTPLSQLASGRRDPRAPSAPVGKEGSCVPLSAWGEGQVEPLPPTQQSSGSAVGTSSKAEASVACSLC
- procedure.summary: PathHunter beta-arrestin cell-based prostanoid receptor assay, IP
- condition.description: Run 1, GP1681 starting concentration 4 uM; β-Arrestin; read-out: EC50
readout: pEC50
In simple prose, pEC50 is minus the logarithm base ten of a concentration in moles per litre.

q: Would you kindly share the measured pEC50 for CC#CCC(C)C(O)C=CC1C(O)CC2Oc3c(CCCC(=O)O)cccc3C21 (single isomer, unassigned) [GP1681, esuberaprost] ?
a: 6.96

----------
- target: EP4 receptor (PTGER4) (Homo sapiens, UniProt P35408)
- Construct: expressed in transfected cells; host or cells: PathHunter β-Arrestin PTGER4 (EP4) cell line
- procedure.summary: PathHunter beta-arrestin cell-based prostanoid receptor assay, EP4
- condition.description: Run 1, GP1681 starting concentration 4 uM; β-Arrestin; curve for GP1681 not fully sigmoidal
readout: EC50 (nM)
Your answer is read as nM, so omit the unit and give the number.

q: Would you kindly share the measured EC50 for CC#CCC(C)C(O)C=CC1C(O)CC2Oc3c(CCCC(=O)O)cccc3C21 (single isomer, unassigned) ?
a: 1740

----------
- target: EP4 receptor (PTGER4) (Homo sapiens, UniProt P35408)
- Construct: expressed in transfected cells; host or cells: PathHunter β-Arrestin PTGER4 (EP4) cell line
- procedure.summary: PathHunter β-Arrestin PTGER4 (EP4) agonist assay, optimisation of cell density and temperature
- Assay type: cell-based
- condition.description: N = 2, 5K RT; read-out: RC50 (μM) / EC50, agonist
readout: EC50 (µM)
Your answer is read as µM, so omit the unit and give the number.

q: Would you kindly share the measured EC50 for CC#CCC(C)C(O)C=CC1C(O)CC2Oc3c(CCCC(=O)O)cccc3C21 (single isomer, unassigned) ?
a: 16.1

----------
- target: EP4 receptor (PTGER4) (Homo sapiens, UniProt P35408)
- Construct: expressed in transfected cells; host or cells: PathHunter β-Arrestin PTGER4 (EP4) cell line
- procedure.summary: PathHunter β-Arrestin PTGER4 (EP4) agonist assay, optimisation of cell density and temperature
- Type: cell-based
- condition.description: 5K 37C, N not given; read-out: RC50 (μM) / EC50, agonist
- Description: This Example describes antagonist assay experiments performed with known EP4 receptor inhibitors. Agonist controls and antagonist binding studies were performed in the PathHunter® β-Arrestin PTGER4 (EP4) cell lines. […] Two different cell densities (5K vs 7.5K) and incubation temperatures (room temperature and 37 C) were evaluated in standard agonist format. […] Receptor binding activity was analyzed using CBIS data analysis suite (ChemInnovation Software, Inc., San Diego, CA, USA). […]
readout: EC50 (µM)
Your answer is read as µM, so omit the unit and give the number.

q: Would you kindly share the measured EC50 for CC#CCC(C)C(O)C=CC1C(O)CC2Oc3c(CCCC(=O)O)cccc3C21 (single isomer, unassigned) [GP1681, esuberaprost] ?
a: 11.9
